Test system: UO-31 renal
Assay: NCI tumour cell line growth inhibition, 48 h
Below, each entry is listed with its recorded TGI.
parameter: TGI

{"compound": "Nc1nc(N)c2cc(S(=O)(=O)c3ccccc3)ccc2n1", "tested_system": "UO-31 renal", "parameter": "TGI", "recorded_value": "> 100 µM"}
{"compound": "CCOC(=O)/C=C(\\C(=O)OCC)n1cc(C)c(=O)n(Cc2cn(COCCOC(C)=O)nn2)c1=O", "tested_system": "UO-31 renal", "parameter": "TGI", "recorded_value": "26.9 µM"}
{"compound": "O=S(=O)(N1CCCCN(S(=O)(=O)C(F)(F)F)CCCN(S(=O)(=O)C(F)(F)F)CCCCN(S(=O)(=O)C(F)(F)F)CCCN(S(=O)(=O)C(F)(F)F)CCCCN(S(=O)(=O)C(F)(F)F)CCCN(S(=O)(=O)C(F)(F)F)CCCCN(S(=O)(=O)C(F)(F)F)CCC1)C(F)(F)F", "tested_system": "UO-31 renal", "parameter": "TGI", "recorded_value": "> 31.6 µM"}
{"compound": "CCOC(=O)C1=C(Nc2cccc3ccccc23)OCC1=O", "tested_system": "UO-31 renal", "parameter": "TGI", "recorded_value": "> 100 µM"}
{"compound": "COC(=O)C(Cc1ccccc1)NP(=O)(O)OCC1OC(n2ccc(N)nc2=O)C(O)C1O (stereo not given)", "tested_system": "UO-31 renal", "parameter": "TGI", "recorded_value": "> 100 µM"}
{"compound": "C/C=C/C(O)P(=O)(OC)OC (stereo not given)", "tested_system": "UO-31 renal", "parameter": "TGI", "recorded_value": "0.334 µM"}
{"compound": "COc1ncc(-c2ccc3ncnc(Nc4cccc(Cl)c4)c3c2)cc1NS(C)(=O)=O", "tested_system": "UO-31 renal", "parameter": "TGI", "recorded_value": "8.96 µM"}
{"compound": "O=C1/C(=C\\c2cccc(Oc3ccccc3)c2)SC(c2ccccc2)N1Cc1ccccc1 (stereo not given)", "tested_system": "UO-31 renal", "parameter": "TGI", "recorded_value": "> 100 µM"}
{"compound": "C[C@]12O[C@@]3(C)O[C@@]3(C)[C@]3(C)O[C@]3(C)[C@@]1(C)O2", "tested_system": "UO-31 renal", "parameter": "TGI", "recorded_value": "> 100 µM"}
{"compound": "COc1ccc(OC)c2c1ccc1c(C)c3ccccc3c(C)c12", "tested_system": "UO-31 renal", "parameter": "TGI", "recorded_value": "> 100 µM"}

* * *

Test system: MDA-MB-231 breast
Test: NCI tumour cell line growth inhibition, 48 h
Rule: yes for TGI not less than 30 µM, no for anything less.

{"molecule": "Cc1ccc(C2SCc3nc4ccccc4n32)cc1 (stereo unspecified)", "assigned_category": "yes"}
{"molecule": "CCCCc1n(Cc2ccc3ccccc3n2)cc[n+]1Cc1ccc2ccccc2c1", "assigned_category": "no"}
{"molecule": "COc1ncc(-c2ccc3ncnc(Nc4cccc(Cl)c4)c3c2)cc1NS(C)(=O)=O", "assigned_category": "no"}
{"molecule": "CS(=O)(=O)Nc1ccc(NCc2cnc3ccc4[nH]cccc4c23)cc1", "assigned_category": "yes"}
{"molecule": "COc1cc(NC(=O)c2cc3ccccc3cc2O)c(OC)cc1Cl", "assigned_category": "no"}
{"molecule": "O=S(C(c1ccccc1)=P(c1ccccc1)(c1ccccc1)c1ccccc1)c1ccc(Cl)cc1 (stereo unspecified)", "assigned_category": "yes"}
{"molecule": "COc1ccc2cn3c4ccc(O)cc4[nH]c(=O)c3c2c1", "assigned_category": "no"}
{"molecule": "CCCCCCCCCc1cc(=O)c2c(O)cc(O)cc2o1", "assigned_category": "yes"}
{"molecule": "Nc1ccccc1-n1c2c(c3ccccc3c1=O)C(=O)c1ccccc1-2", "assigned_category": "yes"}

* * *

Below, each entry is listed with its recorded GI50.
Tested on: OVCAR-3 ovarian
Assay: NCI tumour cell line growth inhibition, 48 h
parameter: GI50

{"compound": "COc1ccc(-n2nc(C(=O)NCC(=O)Nc3nc4cc(OC)ccc4s3)c3ccccc3c2=O)cc1", "recorded_value": "850 nM"}
{"compound": "CCN(CC)CCOc1ccccc1-n1c(C)ccc1-c1ccccc1", "recorded_value": "15600 nM"}
{"compound": "O=C(Oc1c(Cl)c(Cl)c(Cl)c(Cl)c1Cl)C1CCCN1C(=O)OCc1ccccc1 (stereo not given)", "recorded_value": "3270 nM"}
{"compound": "Nc1n[nH]c2cc(F)c([C@@H]3Nc4c(F)cc5[nH]ncc5c4[C@H]4C5CCC(C5)[C@@H]34)cc12 (stereo not given in full)", "recorded_value": "105 nM"}
{"compound": "O=C(/C=C/c1cc(O)ccc1O)c1ccc(Cl)cc1", "recorded_value": "57700 nM"}
{"compound": "COc1ccc(C(=O)c2cc(C)c(OC)c(C)c2)c(OC)c1OC(=O)C(Cl)Cl", "recorded_value": "35.3 nM"}
{"compound": "CCN1Cc2c(/C=C/c3ccccc3)nc3ccc(OC)cc3c2N(c2cccc(Cl)c2)C1", "recorded_value": "1620 nM"}
{"compound": "CCC1C[N+]2=C(c3cc(OC)c(OC)cc3CC2)c2c1cc1n2CCc2cc(OC)c(OC)cc2-1 (stereo not given)", "recorded_value": "1000 nM"}
{"compound": "CCCCc1n(Cc2ccc3ccccc3n2)cc[n+]1Cc1ccc2ccccc2c1", "recorded_value": "541 nM"}
{"compound": "COc1ccc(OC)c(-c2nc3sc(C)cn3c2/C=C2\\C(=O)N(C)c3ccccc32)c1", "recorded_value": "23600 nM"}

* * *

System: NCI/ADR-RES ovarian
Assay: NCI tumour cell line growth inhibition, 48 h
Below, each entry is listed with its recorded log10 TGI.
parameter: log10 TGI (log10 of the value in µM)

{"line_notation": "CCCCCCCCCc1cc(=O)c2c(O)cc(O)cc2o1", "tested_system": "NCI/ADR-RES ovarian", "log10 TGI": 1.55}
{"line_notation": "NCCNc1nc2ccc(F)cc2c2c(=O)c3cc(F)ccc3sc12", "tested_system": "NCI/ADR-RES ovarian", "log10 TGI": 0.52}
{"line_notation": "Oc1ccc(Cl)cc1C1=Nn2c(COc3ccc4c(c3)CCCC4)nnc2SC1", "tested_system": "NCI/ADR-RES ovarian", "log10 TGI": 1.61}
{"line_notation": "O=C1c2ccccc2C(=O)c2c1sc1nc3ccccc3n21", "tested_system": "NCI/ADR-RES ovarian", "log10 TGI": 0.67}
{"line_notation": "COc1ccc(/C=C\\c2cc(OC)c(OC)c(OC)c2)cc1N/C=C\\C(=O)c1c[nH]c2ccccc12", "tested_system": "NCI/ADR-RES ovarian", "log10 TGI": 1.64}
{"line_notation": "COc1ccc2cn3c4ccc(O)cc4[nH]c(=O)c3c2c1", "tested_system": "NCI/ADR-RES ovarian", "log10 TGI": 1.15}
{"line_notation": "COc1ccc(-n2nnc3c(C#N)c(C)c(-c4ccccc4)n3c2=O)cc1", "tested_system": "NCI/ADR-RES ovarian", "log10 TGI": 1.32}
{"line_notation": "O=C(/C=C/c1ccc(O)c(O)c1)O[C@H]1CCCC[C@@H]1OC(=O)/C=C/c1ccc(O)c(O)c1", "tested_system": "NCI/ADR-RES ovarian", "log10 TGI": 1.96}
{"line_notation": "O=C1CCCc2cc3c(cc21)CC1(C3)Cc2cc3c(cc2C1)C(=O)CCC3", "tested_system": "NCI/ADR-RES ovarian", "log10 TGI": 0.82}

* * *

Tested on: OVCAR-4 ovarian
Test: NCI tumour cell line growth inhibition, 48 h

{"molecule": "CCN1Cc2c(/C=C/c3ccccc3)nc3ccc(OC)cc3c2N(c2cccc(Cl)c2)C1", "TGI": "8.44 µM"}
{"molecule": "Cc1c(-c2cc(-c3ccccc3)n[nH]c2=O)c2ccccc2n1C", "TGI": "> 100 µM"}
{"molecule": "N#CCc1nc(-c2cc3ccc(O)cc3oc2=O)cs1", "TGI": "> 100 µM"}
{"molecule": "CC(C)(C)CC(C)(C)c1cc2c(O)c(c1)Cc1cc(C(C)(C)CC(C)(C)C)cc(c1O)Cc1cc(C(C)(C)CC(C)(C)C)cc(c1O)Cc1cc(C(C)(C)CC(C)(C)C)cc(c1O)Cc1cc(C(C)(C)CC(C)(C)C)cc(c1O)Cc1cc(C(C)(C)CC(C)(C)C)cc(c1O)Cc1cc(C(C)(C)CC(C)(C)C)cc(c1O)Cc1cc(C(C)(C)CC(C)(C)C)cc(c1O)C2", "TGI": "> 100 µM"}
{"molecule": "COc1ccccc1C(=O)Nc1ccc(Cl)c(C(=O)OC(C)C)c1", "TGI": "> 100 µM"}
{"molecule": "CCCCCCCCCCCc1cc(=O)c2c(O)cccc2o1", "TGI": "> 100 µM"}
{"molecule": "COc1ccc(C2S/C(=C\\c3ccc([N+](=O)[O-])cc3)C(=O)N2NC(=O)Cc2ccccc2)cc1 (stereo not drawn)", "TGI": "> 100 µM"}
{"molecule": "Oc1c(O)c(Cc2ccccc2)c(Cc2ccccc2)c(Cc2ccccc2)c1Cc1ccccc1", "TGI": "> 10 µM"}
